Tested on: Northern house mosquitoes (Culex pipiens)
experiment.description: Short-term spatial repellency, static air repellency chamber
Assay type: in vivo
test.parameters: Culex pipiens, 1.5 h; filter paper, 1 mL of 0.5% solution in acetone, air-dried 15 min; 90 min; read-out: Short-term Percentage repellency 90 min
Assignment: determine reported pest or weed control at 0.5 % for the given compounds.
State just the number; it will be interpreted in %.

Indicate its recorded pest or weed control at 0.5 %; the compound in question is CC1CCC(C(C)C)C(OC(=O)Cc2cccs2)C1 (stereo not shown) [Compound 2245, menthyl thiophen-2-ylacetate]
35

Indicate its recorded pest or weed control at 0.5 %; the compound in question is CC(C)=CCCC(C)CCOC(=O)C(C)(C)C (stereo not shown) [Compound 1036A, citronellyl pivalate]
90

Indicate its recorded pest or weed control at 0.5 %; the compound in question is CC(C)=CCCC(C)CC(=O)OCCO (stereo not shown) [Compound 1052, 2-hydroxyethyl citronellate]
92.5

Indicate its recorded pest or weed control at 0.5 %; the compound in question is CC(C)=CCCC(C)CC(=O)OC1COC1 (stereo not shown) [Compound 3071, 3-oxetanyl citronellate]
37.5
